target: Acetylcholinesterase (Electrophorus electricus, UniProt O42275)
Sequence (O42275 whole entry): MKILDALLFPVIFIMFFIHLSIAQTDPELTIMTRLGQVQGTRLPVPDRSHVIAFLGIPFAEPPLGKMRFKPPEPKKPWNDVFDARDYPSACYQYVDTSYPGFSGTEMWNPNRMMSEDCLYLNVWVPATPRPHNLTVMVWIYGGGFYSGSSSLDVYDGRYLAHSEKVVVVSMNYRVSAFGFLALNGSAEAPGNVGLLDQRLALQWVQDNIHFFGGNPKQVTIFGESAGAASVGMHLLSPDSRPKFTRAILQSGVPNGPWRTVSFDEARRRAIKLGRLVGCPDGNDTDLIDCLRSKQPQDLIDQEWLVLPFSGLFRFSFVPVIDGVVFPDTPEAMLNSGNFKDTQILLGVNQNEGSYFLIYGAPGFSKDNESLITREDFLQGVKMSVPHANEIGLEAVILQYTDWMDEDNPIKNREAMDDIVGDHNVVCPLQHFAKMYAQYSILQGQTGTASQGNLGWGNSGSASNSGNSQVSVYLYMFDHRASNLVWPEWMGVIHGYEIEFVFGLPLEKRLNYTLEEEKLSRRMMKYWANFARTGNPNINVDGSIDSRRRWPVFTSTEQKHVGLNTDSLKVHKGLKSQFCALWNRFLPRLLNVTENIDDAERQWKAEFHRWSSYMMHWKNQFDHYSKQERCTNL
Measured pIC50, listed per entry for reference.
FYI, pIC50 means -log10 of a concentration in mol per litre.

[[record]]
compound = "CC(Oc1cc(Cl)cc(Cl)c1)c1nc(N)nc(N2CCN(C)CC2)n1 (stereo unspecified)"
value_reported = 5.40

[[record]]
compound = "CCC(Sc1ccc(Cl)c(Cl)c1)c1nc(N)nc(N2CCN(C)CC2)n1 (racemic)"
value_reported = 5.34

[[record]]
compound = "CCC(Oc1cc(Cl)ccc1Cl)c1nc(N)nc(N2CCN(C)CC2)n1 (stereo unspecified)"
value_reported = 4.95


Input line: Look at this compound and give its reported pIC50. CC(Sc1cc(Cl)ccc1Cl)c1nc(N)nc(N2CCN(C)CC2)n1 (racemic)
Output line: 5.04

Input line: Next compound up: CC(Oc1ccc(Cl)c(Cl)c1)c1nc(N)nc(N2CCN(C)CC2)n1 (stereo unspecified)
Output line: 5.02

Input line: Next compound up: CC(Sc1cc(Cl)cc(Cl)c1)c1nc(N)nc(N2CCN(C)CC2)n1 (racemic)
Output line: 5.27

----------
Measured IC50, listed per entry for reference.
biological target: Cholinesterase (Equus caballus, UniProt P81908)
Sequence (P81908 whole entry): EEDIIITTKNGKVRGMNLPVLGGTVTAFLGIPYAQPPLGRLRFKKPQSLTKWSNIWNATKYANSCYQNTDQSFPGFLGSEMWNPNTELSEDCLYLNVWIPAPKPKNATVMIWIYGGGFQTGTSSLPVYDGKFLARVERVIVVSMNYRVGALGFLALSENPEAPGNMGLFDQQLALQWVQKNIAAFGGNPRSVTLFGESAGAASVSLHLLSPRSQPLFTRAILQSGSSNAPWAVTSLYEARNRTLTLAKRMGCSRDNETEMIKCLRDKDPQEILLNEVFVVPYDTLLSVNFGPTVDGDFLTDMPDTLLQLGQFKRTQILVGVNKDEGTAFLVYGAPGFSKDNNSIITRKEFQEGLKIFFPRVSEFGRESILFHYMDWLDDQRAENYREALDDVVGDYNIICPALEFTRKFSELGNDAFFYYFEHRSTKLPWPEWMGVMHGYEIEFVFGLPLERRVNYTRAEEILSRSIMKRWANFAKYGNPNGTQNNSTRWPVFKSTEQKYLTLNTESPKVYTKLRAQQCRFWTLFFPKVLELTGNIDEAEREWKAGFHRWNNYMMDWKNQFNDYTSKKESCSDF
Output should be the measured figure followed by the unit it is expressed in.

These recorded examples may help you get a feel for the data.
[[record]]
compound = "CCC(Sc1cc(Cl)ccc1Cl)c1nc(N)nc(N2CCN(C)CC2)n1 (racemic)"
observable = "IC50"
value_reported = "12.1 µM"

[[record]]
compound = "CCC(Sc1ccc(Cl)c(Cl)c1)c1nc(N)nc(N2CCN(C)CC2)n1 (racemic)"
observable = "IC50"
value_reported = "15 µM"

[[record]]
compound = "CCCCC(Oc1cccc(Cl)c1Cl)c1nc(N)nc(N2CCN(C)CC2)n1 (stereo unspecified)"
observable = "IC50"
value_reported = "0.5 µM"

[[record]]
compound = "CCC(Sc1cc(Cl)cc(Cl)c1)c1nc(N)nc(N2CCN(C)CC2)n1 (racemic)"
observable = "IC50"
value_reported = "9.8 µM"

[[record]]
compound = "CCCCC(Sc1cccc(Cl)c1Cl)c1nc(N)nc(N2CCN(C)CC2)n1 (racemic)"
observable = "IC50"
value_reported = "9.95 µM"


Input line: Look at this compound and give its reported IC50. CCC(Oc1cccc(Cl)c1Cl)c1nc(N)nc(N2CCNCC2)n1 (racemic)
Output line: 10 µM

FYI, the data here is from ChEMBL document CHEMBL5625226.
